Quick note: these are Log II50 numbers for system: Carbonic anhydrase (Bos taurus) (UniProt P00921+Q95323+P18915+Q3SZX4)

Reference set, count: 3
>>> result("Cc1ccc(S(N)(=O)=O)cc1C")
0.48
>>> result("NS(=O)(=O)c1ccc(Cl)c(Cl)c1")
1.76
>>> result("CC(=O)Nc1ccc(S(N)(=O)=O)cc1")
1.48

Dear colleague, I am looking for the recorded Log II50 of the following molecule: Cc1ccccc1S(N)(=O)=O
0.16
